System: SK-MEL-5 melanoma
Procedure Summary: NCI tumour cell line growth inhibition, 48 h
Measured Endpoint: TGI

{"Molecule": "COc1ccc(/C=C2\\N=C3Sc4c(nc[nH]c4=O)N3C2=O)cc1", "TGI": "> 100 µM"}

Task: GET /values?readout=TGI&item= C/C1=C/C2=CC(C)C[C@@H]2C(=O)[C@]2(C)C(=O)CC(C)(C)[C@H]2CC1=O (stereo not given in full)
Output: > 50 µM

Task: GET /values?readout=TGI&item= C=CC(C)(O)/C=C/C=C(\C)C(CC1OC1(C)C)OC(=O)/C(C)=C\C (stereo not given)
Output: > 100 µM

Task: GET /values?readout=TGI&item= O=C(CN1CCN(c2ccc(Cl)cc2)CC1)N1CCN(c2nnc(-c3ccc(Cl)cc3)c(-c3ccc(Cl)cc3)n2)CC1
Output: > 100 µM

Task: GET /values?readout=TGI&item= COc1cc(N/N=C/C#N)cc(OC)c1OC
Output: > 10 µM

Task: GET /values?readout=TGI&item= O=C(c1ccco1)c1nc2cc(F)ccc2[n+]([O-])c1C(F)(F)F
Output: > 100 µM

Task: GET /values?readout=TGI&item= COc1ccc2nc3cc(Cl)ccc3c(N3CCN(c4ccnc(N5CCOCC5)n4)CC3)c2c1
Output: > 100 µM

Task: GET /values?readout=TGI&item= CCOC(=O)[C@H]1Nc2c(cccc2[N+](=O)[O-])[C@H]2OCC[C@@H]12
Output: > 100 µM

Task: GET /values?readout=TGI&item= CCOC(=O)C(NCc1ccc2c(c1)OCO2)(NC(=O)c1ccccc1)C(F)(F)F (stereo not given)
Output: > 100 µM

Task: GET /values?readout=TGI&item= CN(Cc1cnc2nc(N)nc(N)c2n1)c1ccc(C(=O)NCS(=O)(=O)O)cc1
Output: > 100 µM

----------
Tested on: HOP-92 NSCLC
Procedure Summary: NCI tumour cell line growth inhibition, 48 h
Item-by-item account of TGI

These recorded examples may help you get a feel for the data.
{"Compound": "CC(=O)c1cccc(NC(=O)C(=O)C(C2OC(=O)c3ccccc32)[N+](=O)[O-])c1 (stereo not drawn)", "TGI": "> 100 µM"}
{"Compound": "COc1cc(-c2cc(=O)c3c(O)c(OC)c(OC)c(OC)c3o2)ccc1O", "TGI": "40.1 µM"}

Would you kindly look at the next entry?
Task: GET /values?readout=TGI&item= O=C1OCCC1C(O)C1c2ccccc2-c2ccccc21 (stereo not drawn)
Output: > 100 µM

----------
Test system: 786-0 renal
Procedure Summary: NCI tumour cell line growth inhibition, 48 h
Item-by-item account of TGI
Quick note: give the figure in µM, leave out the unit.

{"Compound": "C=C1CCCCCCCCCCC12SCCC2CCCCSC (stereo not given)", "Experimental System": "786-0 renal", "TGI (µM)": 87.4}

Task: GET /values?readout=TGI&item= O=C(Nc1ccc(Cl)cc1F)c1cc(I)ccc1O
Output: 9.24

----------
Test system: MALME-3M melanoma
Procedure Summary: NCI tumour cell line growth inhibition, 48 h
Item-by-item account of TGI

These recorded examples may help you get a feel for the data.
{"Molecule": "CC(=O)O[C@H](C[C@H](C(C)C)N(C)C(=O)[C@@H](NC(=O)[C@H]1CCCCN1C)C(C)C)c1nc(C(=O)N[C@@H](Cc2ccccc2)C[C@H](C)C(=O)O)c(C(C)C)s1", "Experimental System": "MALME-3M melanoma", "TGI": "> 33.3 µM"}
{"Molecule": "CSC1=NC(C(N)=O)C(N)N1C (stereo not given)", "Experimental System": "MALME-3M melanoma", "TGI": "> 100 µM"}
{"Molecule": "CCOP(=O)(OCC)C(N)Cc1ccc(OC)c(OC)c1 (stereo not given)", "Experimental System": "MALME-3M melanoma", "TGI": "> 100 µM"}
{"Molecule": "CCOC(=O)C(C)(C(=O)OCC)/C(Cl)=C\\Cl", "Experimental System": "MALME-3M melanoma", "TGI": "> 100 µM"}

Task: GET /values?readout=TGI&item= C=CC(C)(O)/C=C/C=C(\C)C(CC1OC1(C)C)OC(=O)/C(C)=C\C (stereo not given)
Output: > 100 µM

----------
System: NCI/ADR-RES ovarian
Procedure Summary: NCI tumour cell line growth inhibition, 48 h
Measured Endpoint: TGI

{"Test Smiles": "Cc1cnc(-c2c[nH]c3ccccc23)nc1-c1c[nH]c2ccccc12", "Measured Endpoint": "TGI", "Result": "> 100 µM"}
{"Test Smiles": "COc1cccc2c1-c1c(c3ccc([N+](=O)[O-])cc3c(=O)n1CCCCl)C2=O", "Measured Endpoint": "TGI", "Result": "> 50 µM"}
{"Test Smiles": "Cc1cc(=O)[nH]o1", "Measured Endpoint": "TGI", "Result": "> 100 µM"}
{"Test Smiles": "COc1ccc(/C=C2\\N=C3Sc4c(nc[nH]c4=O)N3C2=O)cc1", "Measured Endpoint": "TGI", "Result": "> 100 µM"}
{"Test Smiles": "O=C(CF)N(O)c1ccc(/C=C/c2ccccc2)cc1", "Measured Endpoint": "TGI", "Result": "> 100 µM"}

Would you kindly look at the next entry?
Task: GET /values?readout=TGI&item= Nc1ccc(N=Nc2ccc(-c3ccc(O)cc3)cc2)c2ccc(S(=O)(=O)O)cc12
Output: > 100 µM

----------
Test system: 786-0 renal
Procedure Summary: NCI tumour cell line growth inhibition, 48 h
Where a SMILES comes first, the peptide text is derived from it. The star is where a group is joined. Pentanoyl = CCCCC(=O)*; Boc = CC(C)(C)OC(=O)*
Item-by-item account of TGI

These recorded examples may help you get a feel for the data.
{"Compound": "CCCCCCCCOC(CO)CO", "Result": "> 100 µM"}
{"Compound": "CCCCC(=O)Oc1ccc(CC(NC(=O)OC(C)(C)C)C(=O)NC(C)C(=O)NC(Cc2ccccc2)C(=O)NCC(N)=O)cc1 (stereo not drawn) (Boc-Y(Pentanoyl)AFG-NH2; configuration not given here)", "Result": "> 100 µM"}

Task: GET /values?readout=TGI&item= CNC(=O)c1ccc2cc(C3(O)CCn4cncc43)ccc2c1 (stereo not drawn)
Output: > 100 µM
